- ASSAY SYSTEM: Polyunsaturated fatty acid lipoxygenase ALOX15 (Homo sapiens) (UniProt P16050)
- Sequence (P16050 whole entry, looked up): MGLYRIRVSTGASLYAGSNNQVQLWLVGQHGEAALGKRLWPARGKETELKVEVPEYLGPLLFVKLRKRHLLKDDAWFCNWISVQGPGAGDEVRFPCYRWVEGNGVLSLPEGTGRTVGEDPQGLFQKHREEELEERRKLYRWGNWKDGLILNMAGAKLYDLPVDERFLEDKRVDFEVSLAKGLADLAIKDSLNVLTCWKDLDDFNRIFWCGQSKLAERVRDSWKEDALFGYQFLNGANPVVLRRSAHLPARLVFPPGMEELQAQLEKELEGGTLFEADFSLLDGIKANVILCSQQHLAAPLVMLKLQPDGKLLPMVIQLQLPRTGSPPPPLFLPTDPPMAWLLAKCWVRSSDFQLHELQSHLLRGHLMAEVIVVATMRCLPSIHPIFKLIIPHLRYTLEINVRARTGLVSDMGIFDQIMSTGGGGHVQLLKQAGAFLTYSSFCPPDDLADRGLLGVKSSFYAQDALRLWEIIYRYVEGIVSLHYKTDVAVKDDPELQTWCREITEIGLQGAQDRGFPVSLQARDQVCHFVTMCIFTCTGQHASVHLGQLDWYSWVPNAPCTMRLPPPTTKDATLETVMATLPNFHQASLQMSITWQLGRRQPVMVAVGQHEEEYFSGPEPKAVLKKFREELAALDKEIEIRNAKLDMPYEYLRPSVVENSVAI
- ASSAY NAME: qHTS Assay for Inhibitors of 15-hLO (15-human lipoxygenase); note: nearly all actives have a fitted effect of over 55% in size
- MEASUREMENT SETUP: purified 15hLO-1, xylenol orange hydroperoxide absorbance; series mostly up to 57.1 µM
The campaign covered roughly 74,000 compounds. About 1,100 (1.5%) were called active. Another 5% or so got no clear call; they are omitted. Calls come from the whole dose curve; as a rule, active = well fitted inhibition curve with a large enough effect; inconclusive = small, poorly fitted or top-dose-only effect; inactive = no such curve, though single readings can be large or run the other way. The sample as a whole holds a higher share of actives than the screen did.
Please state which outcome applies, choosing from class 1 for active, class 0 for inactive

| COMPOUND | GROUP LABEL |
| --- | --- |
| COc1ccc2c3c1OC1CC(O)C=C[C@@]31CCN(C)C2 (stereo partly specified) | class 0 |
| N#Cc1c(Cl)c(Cl)c(Cl)c(C#N)c1Cl | class 0 |
| CC(=O)OC1C2CCC3C1(CC(O)[C@@]1(O)[C@@H](CC(O)C1(C)C)[C@]3(C)O)C[C@@]2(C)O (stereo partly specified) | class 0 |

Hi, do you know how CCC(C)C(=O)O[C@@H]1C[C@@]2(C)C(c3ccoc3)OC(=O)CC23OC2(C)O[C@@]14[C@@]1(C)C(CC(=O)OC)C5(C)CC1(O)C(O)(C5OC(=O)C1(C)OC1C)C(OC(C)=O)[C@@]34O2 (stereo partly specified) came out in this test?
class 0

Hi, do you know how Clc1ccc(C(c2ccc(Cl)cc2)n2cc[n+](C[C@@H](OCc3ccc(Cl)cc3Cl)c3ccc(Cl)cc3Cl)c2)cc1 came out in this test?
class 1

Hi, do you know how CCN1C[C@]2(COC)C(O)C[C@H](OC)[C@@]34C5C[C@]6(O)C(OC)C(O)[C@](OC(C)=O)(C5C6OC(=O)c5ccccc5)C(C(OC)C23)C14 (stereo partly specified) came out in this test?
class 0
